# Test system: HepG2, MCF7 and WI-38 cells
# Method notes: MTT anti-proliferative assay, cell lines summarised together in text
# Type: cell-based
# Test parameters: Homo sapiens, read-out: IC50 against all cells investigated
Experimental endpoint: IC50

Inquiry: Write down the reported IC50 of COc1cccc2c1C(=O)c1c(O)c3c(c(O)c1C2=O)C[C@@](O)(C(=O)CO)C[C@@H]3O[C@H]1C[C@H](N)[C@H](O)[C@H](C)O1 [DOX, Doxorubicin, reference compound] , test system: HepG2, MCF7 and WI-38 cells.
Reply text: 4 to 7 µM

====

IC50 for assorted compounds
# Tested on: HepG2 cells
# Method notes: MTT anti-proliferative assay, HepG2
# Assay type: cell-based, human
# Test parameters: Homo sapiens, HepG2, 48 h, read-out: IC50 HepG2
The reply should be a number in µM, with the unit left off.

Consider the reported IC50 for these compounds:
> print(dat)
                               given.smiles  experimental.endpoint  display.unit  readout.number
1  O=C(CSc1nnc(-c2n[nH]c(=O)c3ccccc23)o1)c1ccccc1                   IC50            µM            66.1
2  O=c1[nH]nc(-c2nnc(SCNC3CCCCC3)o2)c2ccccc12                   IC50            µM            42.9
3  O=c1c2ccccc2c(-c2nnc(SCNc3ccc(Cl)cc3)o2)nn1CNc1ccc(Cl)cc1                   IC50            µM            33.3

Inquiry: Report IC50 for "CC(=O)c1ccc(NC(=O)CSc2nnc(-c3n[nH]c(=O)c4ccccc34)o2)cc1" please.
Reply text: 72.6
